The reported numbers originate from ChEMBL document CHEMBL4834405.

Experiment: Selectivity ratio of Kd for displacement of fluorescent tracer 5-(3-(4-((1S,5S,6S)-10-(3,5-dichlorophenylsulfonyl)-2-oxo-3-(pyridin-3-ylmethyl)-3,10-diazabicyclo[4.3.1]decan-5-yl)-1H-1,2,3-triazol-1-yl)propylcarbamoyl)-2-(6-(dimethylamino)-3-(dimethyliminio)-3H-xanthen-9-yl)benzoate from recombinant full length C-terminal FLAG-tagged FKBP52 (unknown origin) to Kd for displacement of fluorescent tracer 5-(3-(4-((1S,5S,6S)-10-(3,5-dichlorophenylsulfonyl)-2-oxo-3-(pyridin-3-ylmethyl)-3,10-diazabicyclo[4.3.1]decan-5-yl)-1H-1,2,3-triazol-1-yl)propylcarbamoyl)-2-(6-(dimethylamino)-3-(dimethyliminio)-3H-xanthen-9-yl)benzoate from recombinant full length C-terminal FLAG-tagged FKBP51 (unknown origin)
measurement kind: Selectivity ratio

Looking for the measured Selectivity ratio of `COc1ccc(CC[C@H]2OC(=O)[C@@H]3CCCCN3C(=O)[C@@H](C3CCCCC3)c3cc(OC)c(c(OC)c3)OCCCOCCCCOc3cccc2c3)cc1OC` , can you help?
> 133

Fill in: Selectivity ratio of `COc1ccc(CC[C@H]2OC(=O)[C@@H]3CCCCN3C(=O)[C@@H](C3CCCCC3)c3cc(OC)c(c(OC)c3)OC/C=C/COc3cccc2c3)cc1OC` is ___
> 112

Any idea what its Selectivity ratio is? The molecule is `COc1ccc(CC[C@H]2OC(=O)[C@@H]3CCCCN3C(=O)[C@@H](C3CCCCC3)c3cc(OC)c(OC)c(c3)OCCOc3cccc2c3)cc1OC`
> 165

Give its Selectivity ratio value. Item: `COc1ccc(CC[C@H]2OC(=O)[C@@H]3CCCCN3C(=O)[C@@H](C3CCCCC3)c3cc(OC)c(OC)c(c3)OCCOC/C=C/COc3cccc2c3)cc1OC`
> 161

Request the reported Selectivity ratio associated with `COc1ccc(CC[C@H]2OC(=O)[C@@H]3CCCCN3C(=O)[C@@H](C3CCCCC3)c3cc(OC)c(OC)c(c3)OCC/C=C/COc3cccc2c3)cc1OC`
> 89

Would you kindly share the measured Selectivity ratio for `COc1ccc(CC[C@H]2OC(=O)[C@@H]3CCCCN3C(=O)[C@@H](C3CCCCC3)c3cc(OC)c(c(OC)c3)OCC/C=C/COc3cccc2c3)cc1OC` ?
> 67

Which Selectivity ratio value belongs to `COc1ccc(CC[C@H]2OC(=O)[C@@H]3CCCCN3C(=O)[C@@H](C3CCCCC3)c3cc(OC)c(c(OC)c3)OCC/C=C\COc3cccc2c3)cc1OC` ?
> 114

---

Biological target: Peptidyl-prolyl cis-trans isomerase FKBP5 (Homo sapiens, UniProt Q13451)
Sequence (Q13451 whole entry): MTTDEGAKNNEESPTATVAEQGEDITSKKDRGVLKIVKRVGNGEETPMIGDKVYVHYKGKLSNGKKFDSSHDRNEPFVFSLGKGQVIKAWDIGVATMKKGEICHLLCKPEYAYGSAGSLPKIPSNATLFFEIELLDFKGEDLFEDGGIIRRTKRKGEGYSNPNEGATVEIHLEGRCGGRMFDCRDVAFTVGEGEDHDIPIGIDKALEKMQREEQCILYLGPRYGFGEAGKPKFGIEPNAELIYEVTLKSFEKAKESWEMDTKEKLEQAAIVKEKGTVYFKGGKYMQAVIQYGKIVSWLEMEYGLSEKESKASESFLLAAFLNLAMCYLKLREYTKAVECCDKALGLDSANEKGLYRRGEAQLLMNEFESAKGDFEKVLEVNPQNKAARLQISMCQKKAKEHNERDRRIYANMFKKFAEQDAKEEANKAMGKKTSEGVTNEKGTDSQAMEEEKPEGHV
Assay: Displacement of fluorescent tracer 5-(3-(4-((1S,5S,6S)-10-(3,5-dichlorophenylsulfonyl)-2-oxo-3-(pyridin-3-ylmethyl)-3,10-diazabicyclo[4.3.1]decan-5-yl)-1H-1,2,3-triazol-1-yl)propylcarbamoyl)-2-(6-(dimethylamino)-3-(dimethyliminio)-3H-xanthen-9-yl)benzoate from recombinant full length C-terminal FLAG-tagged FKBP51 (unknown origin) expressed in Escherichia coli BL21 (DE3) cells incubated for 30 mins by fluorescence polarisation competition binding assay
For each entry below, report its pKd value.
The read-out pKd is expressed as -log10 of concentration in moles per litre.

Given the entry `COc1ccc(CC[C@H]2OC(=O)[C@@H]3CCCCN3C(=O)[C@@H](C3CCCCC3)c3cc(OC)c(OC)c(c3)OCCC(=O)CCOc3cccc2c3)cc1OC` , report its measured pKd.
8.10

Any idea what its pKd is? The compound is COc1ccc(CC[C@H]2OC(=O)[C@@H]3CCCCN3C(=O)[C@@H](C3CCCCC3)c3cc(OC)c(c(OC)c3)OCC(O)C(O)COc3cccc2c3)cc1OC (mixture of isomers)
7.92

For the compound `COc1ccc(CC[C@H]2OC(=O)[C@@H]3CCCCN3C(=O)[C@@H](C3CCCCC3)c3cc(OC)c(c(OC)c3)OC/C=C\COc3cccc2c3)cc1OC` , what pKd is on record?
7.17

---

Assay: Selectivity ratio of Kd for displacement of fluorescent tracer 5-(3-(4-((1S,5S,6S)-10-(3,5-dichlorophenylsulfonyl)-2-oxo-3-(pyridin-3-ylmethyl)-3,10-diazabicyclo[4.3.1]decan-5-yl)-1H-1,2,3-triazol-1-yl)propylcarbamoyl)-2-(6-(dimethylamino)-3-(dimethyliminio)-3H-xanthen-9-yl)benzoate from recombinant full length C-terminal FLAG-tagged FKBP12.6 (unknown origin) to Kd for displacement of fluorescent tracer 5-(3-(4-((1S,5S,6S)-10-(3,5-dichlorophenylsulfonyl)-2-oxo-3-(pyridin-3-ylmethyl)-3,10-diazabicyclo[4.3.1]decan-5-yl)-1H-1,2,3-triazol-1-yl)propylcarbamoyl)-2-(6-(dimethylamino)-3-(dimethyliminio)-3H-xanthen-9-yl)benzoate from recombinant full length C-terminal FLAG-tagged FKBP51 (unknown origin)
Please respond with reported Selectivity ratio for every item in the list.
Note: the reply should be a number with no unit written.

Name the reported Selectivity ratio value associated with the compound `COc1ccc(CC[C@H]2OC(=O)[C@@H]3CCCCN3C(=O)[C@@H](C3CCCCC3)c3cc(OC)c(c(OC)c3)OCCCOc3cccc2c3)cc1OC`
6.3

Look up Selectivity ratio: `COc1ccc(CC[C@H]2OC(=O)[C@@H]3CCCCN3C(=O)[C@@H](C3CCCCC3)c3cc(OC)c(c(OC)c3)OCCOc3cccc2c3)cc1OC`
3.3

What value of measured Selectivity ratio is listed for `COc1ccc(CC[C@H]2OC(=O)[C@@H]3CCCCN3C(=O)[C@@H](C3CCCCC3)c3cc(OC)c(OC)c(c3)OC[C@H](O)[C@@H](O)COc3cccc2c3)cc1OC` ?
1.1

Look up Selectivity ratio: `COc1ccc(CC[C@H]2OC(=O)[C@@H]3CCCCN3C(=O)[C@@H](C3CCCCC3)c3cc(OC)c(c(OC)c3)OCCCCCOc3cccc2c3)cc1OC`
7.1

Need Selectivity ratio, item `COc1ccc(CC[C@H]2OC(=O)[C@@H]3CCCCN3C(=O)[C@@H](C3CCCCC3)c3cc(OC)c(OC)c(c3)OC[C@@H](O)[C@H](O)COc3cccc2c3)cc1OC`
1.8

---

Assay: Selectivity ratio of Kd for displacement of fluorescent tracer 5-(3-(4-((1S,5S,6S)-10-(3,5-dichlorophenylsulfonyl)-2-oxo-3-(pyridin-3-ylmethyl)-3,10-diazabicyclo[4.3.1]decan-5-yl)-1H-1,2,3-triazol-1-yl)propylcarbamoyl)-2-(6-(dimethylamino)-3-(dimethyliminio)-3H-xanthen-9-yl)benzoate from recombinant full length C-terminal FLAG-tagged FKBP52 (unknown origin) to Kd for displacement of fluorescent tracer 5-(3-(4-((1S,5S,6S)-10-(3,5-dichlorophenylsulfonyl)-2-oxo-3-(pyridin-3-ylmethyl)-3,10-diazabicyclo[4.3.1]decan-5-yl)-1H-1,2,3-triazol-1-yl)propylcarbamoyl)-2-(6-(dimethylamino)-3-(dimethyliminio)-3H-xanthen-9-yl)benzoate from recombinant full length C-terminal FLAG-tagged FKBP51 (unknown origin)
For each of the molecules below, state its Selectivity ratio.

Which Selectivity ratio value is on record for `COc1ccc(CC[C@H]2OC(=O)[C@@H]3CCCCN3C(=O)[C@@H](C3CCCCC3)c3cc(OC)c(c(OC)c3)OCCCOc3cccc2c3)cc1OC` ?
> 142

Recorded Selectivity ratio for `COc1ccc(CC[C@H]2OC(=O)[C@@H]3CCCCN3C(=O)[C@@H](C3CCCCC3)c3cc(OC)c(OC)c(c3)OCC/C=C\COc3cccc2c3)cc1OC` , please?
> 141

Report Selectivity ratio for `COc1ccc(CC[C@H]2OC(=O)[C@@H]3CCCCN3C(=O)[C@@H](C3CCCCC3)c3cc(OC)c(c(OC)c3)OCCOc3cccc2c3)cc1OC` please.
> 147

Which Selectivity ratio reading was recorded for the molecule `COc1ccc(CC[C@H]2OC(=O)[C@@H]3CCCCN3C(=O)[C@@H](C3CCCCC3)c3cc(OC)c(OC)c(c3)OCCOC/C=C\COc3cccc2c3)cc1OC` ?
> 73

Fill in the blank: the reported Selectivity ratio of `COc1ccc(CC[C@H]2OC(=O)[C@@H]3CCCCN3C(=O)[C@@H](C3CCCCC3)c3cc(OC)c(OC)c(c3)OCCCOc3cccc2c3)cc1OC` is ____.
> 188

Given the molecule `COc1ccc(CC[C@H]2OC(=O)[C@@H]3CCCCN3C(=O)[C@@H](C3CCCCC3)c3cc(OC)c(OC)c(c3)OCCCOCCCCOc3cccc2c3)cc1OC` , what is its reported Selectivity ratio?
> 97
